Test system: Saccharomyces cerevisiae
test.description: Test of antibacterial activity in vitro (bacteria-inhibition zone)
Type: cell-based
condition.label: 48 h; 2.8 μg/ml after conversion; no serum
result.type: diameter of the bacteria-inhibition zone, Saccharomyces cerevisiae 48 h

CCOC(=O)OC(C)OC(=O)[C@H]1[C@@H]2C[C@@H](OC3OC(C)C(O)C(N)C3O)/C=C/C=C/C=C/C=C/C=C/C=C/C=C/[C@H](C)[C@@H](O)[C@@H](C)[C@H](C)OC(=O)C[C@H](O)C[C@H](O)CC[C@@H](O)[C@H](O)C[C@H](O)C[C@](O)(C[C@@H]1O)O2 (stereo partly shown); ++ (9-12 mm: ++)
Cc1oc(=O)oc1COC(=O)C1C(O)CC2(O)CC(O)CC(O)C(O)CCC(O)CC(O)CC(=O)OC(C)C(C)C(O)C(C)C=CC=CC=CC=CC=CC=CC=CC(OC3OC(C)C(O)C(N)C3O)CC1O2 (stereo not shown); ++ (9-12 mm: ++)
CC(OC(=O)OC1CCCCC1)OC(=O)C1C(O)CC2(O)CC(O)CC(O)C(O)CCC(O)CC(O)CC(=O)OC(C)C(C)C(O)C(C)C=CC=CC=CC=CC=CC=CC=CC(OC3OC(C)C(O)C(N)C3O)CC1O2 (stereo not shown); ++ (9-12 mm: ++)

----------
Test system: Saccharomyces cerevisiae
test.description: Test of antibacterial activity in vitro (bacteria-inhibition zone)
Type: cell-based
condition.label: 0 h; 2.8 μg/ml after conversion; no serum
result.type: diameter of the bacteria-inhibition zone, Saccharomyces cerevisiae 0 h

CCOC(=O)OC(C)OC(=O)[C@H]1[C@@H]2C[C@@H](OC3OC(C)C(O)C(N)C3O)/C=C/C=C/C=C/C=C/C=C/C=C/C=C/[C@H](C)[C@@H](O)[C@@H](C)[C@H](C)OC(=O)C[C@H](O)C[C@H](O)CC[C@@H](O)[C@H](O)C[C@H](O)C[C@](O)(C[C@@H]1O)O2 (stereo partly shown); ++ (9-12 mm: ++)
CC(OC(=O)OC1CCCCC1)OC(=O)C1C(O)CC2(O)CC(O)CC(O)C(O)CCC(O)CC(O)CC(=O)OC(C)C(C)C(O)C(C)C=CC=CC=CC=CC=CC=CC=CC(OC3OC(C)C(O)C(N)C3O)CC1O2 (stereo not shown); ++ (9-12 mm: ++)
Cc1oc(=O)oc1COC(=O)C1C(O)CC2(O)CC(O)CC(O)C(O)CCC(O)CC(O)CC(=O)OC(C)C(C)C(O)C(C)C=CC=CC=CC=CC=CC=CC=CC(OC3OC(C)C(O)C(N)C3O)CC1O2 (stereo not shown); ++ (9-12 mm: ++)
